// reported protein stability index per item
B1: ZNF277 (parent)
chain: ILREELQKQRLREILEQQQQERND

variants of: B1; test: protein stability index of a GFP-peptide fusion (GPS, HEK-293T) (PSI 1-6); higher = more stable; details: c terminus: a fixed tail appended;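 note: lentivirally expressed fusions sorted by FACS into six bins by GFP to DsRed ratio, PSI derived from sequencing read proportions per bin multiplied by bin number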
value type: protein stability index

mut	value type	measured
L15K	protein stability index	4.37
Q9E	protein stability index	3.04
K8L	protein stability index	3.63
E13F	protein stability index	3.77
Q18L	protein stability index	3.37
L6F	protein stability index	4.49
N23R	protein stability index	3.75
E21N	protein stability index	3.9
K8T	protein stability index	4
D24C	protein stability index	3.91
L11V	protein stability index	2.73
E4V	protein stability index	3.88
R12Y	protein stability index	3.87
E4I	protein stability index	3.79
E21R	protein stability index	2.69
L6V	protein stability index	4.65
K8N	protein stability index	4.53
Q19P	protein stability index	4.29
L15R	protein stability index	4.82
Q7A	protein stability index	4.12
K8A	protein stability index	4.7
E21V	protein stability index	3.2
N23L	protein stability index	3.92
I14Q	protein stability index	4.81
K8S	protein stability index	4.81
Q7H	protein stability index	4.47
L2E	protein stability index	5.51
E4H	protein stability index	3.95
L15I	protein stability index	4.48
E16W	protein stability index	2.87
L2Q	protein stability index	5.61
I14K	protein stability index	3.53
R10N	protein stability index	4.51
I14V	protein stability index	4.25
I14A	protein stability index	5.04
R10V	protein stability index	4.07
Q7G	protein stability index	5.06
Q18M	protein stability index	3.59
L2V	protein stability index	4.73
E5C	protein stability index	3.76
Q18S	protein stability index	3.99
E4P	protein stability index	4.95
E16M	protein stability index	3.81
E5H	protein stability index	3.81
R12K	protein stability index	4.6
L15S	protein stability index	4.99

Origin of measurements: the supplement of paper PMC10567573
